tested on: mPTP; assay: mPTP activity (Ca2+ retention) assay in isolated rat liver mitochondria; format: biochemical; conditions: examples tested by different contract research organisations, believed comparable
quantity.kind: mPTP Rat liver pIC50

O=C(NCC1(Cc2ccc(F)c(F)c2)CCC1)c1nccc(=O)[nH]1
6.51
O=C(NCC1(Cc2ccc(F)cc2F)CCC1)c1cc(O)ccn1
6.01
CCC(CNC(=O)c1nn(C)c(=O)[nH]1)Cc1ccc2c(c1)CCO2 (stereo not drawn)
5.41
Cn1nc(C(=O)NCC2(Cc3c(F)cccc3F)CCC2)[nH]c1=O
6.09
CC(CNC(=O)c1cc(O)no1)(Cc1ccc(F)cc1F)C1CC1 (single isomer, unassigned) [Example 269]
6.78
O=C(NCC1(Cc2ccc(F)cc2F)CC12CC2)c1nccc(=O)[nH]1 (stereo not drawn) [Example 186]
6.58
CCc1cccc(CC2(CNC(=O)c3nn(C)c(=O)[nH]3)CCC2)c1
5.26
CCC(CNC(=O)c1nn(C)c(=O)[nH]1)Cc1ccc(F)c(F)c1 (stereo not drawn)
6.56
Cc1cc(Cl)ccc1CC1(CNC(=O)c2nn(C)c(=O)[nH]2)CCC1
5.75
O=C(NCC1(Cc2ccc(F)cc2F)CCC1)c1nnc[nH]1
5.14
Cn1cc(C(=O)NCC2(Cc3ccccc3)CCC2)[nH]c1=O
4.65
CC(C)(CNC(=O)c1ccc(=O)[nH]n1)Cc1ccccc1
5.76
CC(C)C(CNC(=O)c1nn(C)c(=O)[nH]1)Cc1ccccc1 (stereo not drawn)
6.50
O=C(NC[C@H](Cc1ccc(F)cc1F)C1CC1)c1nncc(=O)[nH]1
6.37
CC(CNC(=O)c1ncc(F)c(=O)[nH]1)(Cc1ccc(F)cc1F)C1CC1 (single isomer, unassigned) [Example 257]
6.82
CC(O)C(C)(CNC(=O)c1nn(C)c(=O)[nH]1)Cc1ccccc1 (stereo not drawn)
5.27
Cc1cnc(C(=O)NCC(C)(Cc2ccc(F)cc2)C2CC2)[nH]c1=O (single isomer, unassigned) [Example 268]
6.04
